- Test system: K562
- Procedure Text: NCI tumour cell line growth inhibition, 48 h
Calls of active or inactive are those of the source. No stated cut-off is given here; in the data, active = GI50 up to about 1.1 µM and inactive = higher.
Answer each item with its documented GI50.

Example molecules with recorded GI50:
molecule=CC(C)(C)c1ccc(OC(=O)Nc2ccc(O)c(C(=O)O)c2)cc1 meas_value="> 100 µM (inactive)"
molecule="CCOC(=O)CCC(NC(=O)c1ccc(CNc2nc3cc(N)cc(N)c3nc2-c2ccccc2)cc1)C(=O)OCC (stereo not drawn)" meas_value="15.3 µM (inactive)"
molecule=CCOc1ccccc1N1C(=O)C(=O)C(c2nc3ccccc3o2)C(=O)C1=O meas_value="> 100 µM (inactive)"
molecule=CCOC(=O)c1sc2c(c1OC(=O)c1cccs1)c(=O)n(-c1ccccc1)c(=S)n2-c1ccccc1 meas_value="19.9 µM (inactive)"

For each listed entry, give its GI50.
1. CC1=C(C(=O)Nc2ccccc2)C(c2ccc([N+](=O)[O-])cc2)C(C(=O)Nc2ccccc2)=C(C)N1
2. O=c1[nH]c2cccccc-2c1-c1nc2ccccc2[nH]1
3. S=C1N=C2C(=N1)n1c3c(c4ccccc41)CCCC23 (stereo not drawn)
4. O=c1ccc2cc3ccc4cccc5ccc(c2o1)c3c45
5. Fc1ccc(Oc2nc3ccc(C(F)(F)F)cc3nc2-c2ccccc2)cc1
6. CN(C)CCCN1CCC2(CCC(C(C)(C)C)CC2)CC1
7. CCOC(=O)c1sc(N)nc1N1CCCC1
8. Nc1ccc(-c2nc3ccc(Cc4ccc5nc(-c6ccc(N)cc6)oc5c4)cc3o2)cc1

1. 15.4 µM (inactive)
2. 34.5 µM (inactive)
3. 33.1 µM (inactive)
4. > 100 µM (inactive)
5. > 10 µM (inactive)
6. 0.266 µM (active)
7. > 100 µM (inactive)
8. 44.5 µM (inactive)

# GI50 lookup, item O=C1CC(CC(OCc2ccccc2)C(COCc2ccccc2)OCc2ccccc2)CC(=O)N1 (stereo not drawn)
33.7 µM (inactive)

FYI, the data here is from ChEMBL document CHEMBL1201862.
